Values compiled from patent US20190144550A1.

Provide the reported koff of each item.
- target-under-test: T1, Monomeric 8-histidine tagged human EGFRvIII extracellular domain (human, UniProt P00533 298-645)
- T1 construct: Analyte in all SPR assays; not shown: 8-histidine tag
- experiment: SPR, captured by anti-mouse Fc, 37 C
Answers are plain numbers, in s⁻¹.

binder	units-symbol	koff
11B11 (antibody, V domains shown, Hybridoma supernatant (AlivaMab mouse); captured/detected via mouse Fc) VH: QVTLKESGPVLVKPTETLTLTCTVSGFSLSNAKMGVSWIRQPPGKALEWLAHIFSTDEKSIRRSLRSRLTMSKDTSKSQVVLTMTNMDPVDTATYYCVRDSSNYEGYFDYWGQGTLVTVSS VL: EVLMTQSPATLSVSPGERATLSCRASQSVSTNFAWYQQRPGQAPRLLLFGASTRATGIPGRFSGSGSGTENILTISSLQSEDFAIYFCQQYKDWPFTFGPGSKVEIK	s⁻¹	0.00113
49B11 (antibody, V domains shown, Hybridoma supernatant (AlivaMab mouse); captured/detected via mouse Fc) VH: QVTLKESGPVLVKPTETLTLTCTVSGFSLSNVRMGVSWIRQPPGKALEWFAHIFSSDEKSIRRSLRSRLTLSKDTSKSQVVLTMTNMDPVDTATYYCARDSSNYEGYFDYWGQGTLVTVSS VL: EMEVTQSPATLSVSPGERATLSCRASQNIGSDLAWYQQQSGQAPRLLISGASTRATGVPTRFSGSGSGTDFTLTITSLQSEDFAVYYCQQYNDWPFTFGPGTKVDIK	s⁻¹	0.000695

Let us move to another entry and its koff.
Param item = 32G8 (antibody, V domains shown, Hybridoma supernatant (AlivaMab mouse); captured/detected via mouse Fc) VH: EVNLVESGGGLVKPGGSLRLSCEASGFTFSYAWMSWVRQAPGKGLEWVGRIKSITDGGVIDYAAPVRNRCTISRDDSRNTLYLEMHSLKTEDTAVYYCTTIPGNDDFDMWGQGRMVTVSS VL: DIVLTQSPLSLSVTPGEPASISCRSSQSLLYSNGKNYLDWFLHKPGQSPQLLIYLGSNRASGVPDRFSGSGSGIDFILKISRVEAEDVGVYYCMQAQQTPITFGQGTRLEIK ; retrieve measured koff.
0.0122
